The measured values listed here are drawn from patent US10442763B2.

target: His-EBNA1 (DNA binding domain of EBNA1, amino acids 459-607) (Epstein-Barr virus)
Sequence (P03211 459-607): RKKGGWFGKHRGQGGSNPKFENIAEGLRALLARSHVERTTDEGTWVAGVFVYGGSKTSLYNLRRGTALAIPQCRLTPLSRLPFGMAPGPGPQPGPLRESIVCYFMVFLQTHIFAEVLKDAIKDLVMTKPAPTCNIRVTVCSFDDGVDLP
ASSAY READOUT: IC50

Answered cases to consult:
>>> print(df.to_string())
                                   compound             val
0  O=C(O)c1cccc(C#Cc2ccc(CN3CCN(S(=O)(=O)C4CC4)CC3)cc2)c1-c1ccc2cc[nH]c2c1 [Entry 190]    10 to 100 µM
1  O=C(O)c1cccc(C#Cc2ccccc2)c1-c1cnc2ncccc2c1 [Entry 115]  100 to 1000 µM
2  Nc1nc2c(s1)C[C@H](NC(=O)c1ccc(C#Cc3cccc(C(=O)O)c3-c3ccc4cc[nH]c4c3)cc1)CC2 [Entry 201]      1 to 10 µM

Field: next compound
The compound O=C(O)c1cccc(C#Cc2ccc(COc3ccccc3)cc2)c1-c1ccc2cc[nH]c2c1 [Entry 88] , tested on His-EBNA1 (DNA binding domain of EBNA1, amino acids 459-607) (Epstein-Barr virus), showed IC50 of 1 to 10 µM
